Hey, just so you know, these numbers are from ChEMBL document CHEMBL3045111.

- Tested on: Echinochloa crus-galli
- TEST_NAME: Post-emergence herbicidal activity against one-leaf stage of Echinochloa crus-galli (barnyard grass) under greenhouse condition at 750 g /ha measured after 24 days by spray method
- Type: functional
- CONDITION_DETAILS: 576 h, read-out: GI
Label true when inhibition of growth at 750 g/ha is at or above 10%; anything below gets false.

Illustrative cases are given below, each with its answer.
| CPD_SMILES | LABEL_CLASS |
| --- | --- |
| Cc1ccc(Oc2nnc(C)cc2-c2cccc(C(F)(F)F)c2)cc1 | true |
| Cc1cc(-c2cccc(C(F)(F)F)c2)c(OCc2cccc(F)c2)nn1 | true |
| Cc1cc(-c2cccc(C(F)(F)F)c2)c(Oc2ccccc2)nn1 | true |
| Cc1cc(-c2cccc(C(F)(F)F)c2)c(OCc2ccc(Cl)cc2Cl)nn1 | false |
| COc1ccc(COc2nnc(C)cc2-c2cccc(C(F)(F)F)c2)cc1 | false |
| Cc1cc(-c2cccc(C(F)(F)F)c2)c(OCc2ccccc2Br)nn1 | false |

Here's the next entry for you.
Does inhibition of growth at 750 g/ha meet or surpass 10% for Cc1ccc(Oc2nnc(C)cc2-c2cccc(C(F)(F)F)c2)c(C)c1 ?
true

====

- Tested on: Echinochloa crus-galli
- TEST_NAME: Post-emergence herbicidal activity against one-leaf stage of Echinochloa crus-galli (barnyard grass) under greenhouse condition at 750 g /ha measured after 24 days by spray method
- Type: functional
- CONDITION_DETAILS: 576 h, read-out: GI
Consider the following compounds and their measured inhibition of growth at 750 g/ha readings.
Expressed in %, but write only the number.

Below, each entry is followed by its recorded inhibition of growth at 750 g/ha result.
| CPD_SMILES | OBSERVED_MEASUREMENT |
| --- | --- |
| Cc1cc(-c2cccc(C(F)(F)F)c2)c(Oc2ccccc2Br)nn1 | 30 |
| Cc1cc(-c2cccc(C(F)(F)F)c2)c(Oc2ccccc2F)nn1 | 5 |
| Cc1cc(-c2cccc(C(F)(F)F)c2)c(Oc2ccc(C#N)cc2)nn1 | 83 |
| Cc1cc(C)cc(Oc2nnc(C)cc2-c2cccc(C(F)(F)F)c2)c1 | 6 |
| Cc1cc(-c2cccc(C(F)(F)F)c2)c(OCc2ccccc2)nn1 | 29 |

Here Cc1cc(-c2cccc(C(F)(F)F)c2)c(OCc2ccccc2F)nn1 was tested on Echinochloa crus-galli, and its inhibition of growth at 750 g/ha came to 19

Here COc1cccc(COc2nnc(C)cc2-c2cccc(C(F)(F)F)c2)c1 was tested on Echinochloa crus-galli, and its inhibition of growth at 750 g/ha came to 5

Here Cc1cc(-c2cccc(C(F)(F)F)c2)c(Oc2ccc(Cl)cc2)nn1 was tested on Echinochloa crus-galli, and its inhibition of growth at 750 g/ha came to 78

====

- Tested on: Spirodela polyrhiza
- TEST_NAME: Bleaching herbicidal activity in Spirodela polyrhiza fronds cultured in compound-containing in medium assessed as chlorophyll inhibition at 10 ug/ml after 7 days
- Type: functional
- CONDITION_DETAILS: 168 h
EXPERIMENTAL_ENDPOINT: inhibition at 10 µg/mL (%)
Expressed in %, but write only the number.

inhibition at 10 µg/mL in this record for Cc1cc(-c2cccc(C(F)(F)F)c2)c(OCc2ccccc2)nn1 : 82

inhibition at 10 µg/mL in this record for Cc1cc(-c2cccc(C(F)(F)F)c2)c(Oc2cccc(Br)c2)nn1 : 79

inhibition at 10 µg/mL in this record for Cc1cc(-c2cccc(C(F)(F)F)c2)c(Oc2ccccc2Br)nn1 : 78

====

Consider the following compounds and their measured inhibition of growth at 750 g/ha readings.
- System: Echinochloa crus-galli
- TEST_NAME: Post-emergence herbicidal activity against one-leaf stage of Echinochloa crus-galli (barnyard grass) under greenhouse condition at 750 g /ha measured after 24 days by spray method
- Assay type: functional
- CONDITION_DETAILS: 576 h, read-out: GI
Expressed in %, but write only the number.

| CPD_SMILES | UNITS | inhibition of growth at 750 g/ha |
| --- | --- | --- |
| Cc1cccc(Oc2nnc(C)cc2-c2cccc(C(F)(F)F)c2)c1 | % | 40 |
| COc1ccccc1COc1nnc(C)cc1-c1cccc(C(F)(F)F)c1 | % | 1 |

inhibition of growth at 750 g/ha in this record for Cc1cc(-c2cccc(C(F)(F)F)c2)c(Oc2ccccc2-c2ccccc2)nn1 : 0

inhibition of growth at 750 g/ha in this record for Cc1cc(-c2cccc(C(F)(F)F)c2)c(OCc2ccccc2C(F)(F)F)nn1 : 14

====

Consider the following molecules and their measured inhibition of growth at 750 g/ha readings.
- System: Echinochloa crus-galli
- TEST_NAME: Post-emergence herbicidal activity against one-leaf stage of Echinochloa crus-galli (barnyard grass) under greenhouse condition at 750 g /ha measured after 24 days by spray method
- Assay type: functional
- CONDITION_DETAILS: 576 h, read-out: GI
Expressed in %, but write only the number.

| CPD_SMILES | UNITS | OBSERVED_MEASUREMENT |
| --- | --- | --- |
| Cc1cc(-c2cccc(C(F)(F)F)c2)c(Oc2ccc(C(C)(C)C)cc2)nn1 | % | 33 |

inhibition of growth at 750 g/ha in this record for Cc1cc(-c2cccc(C(F)(F)F)c2)c(OCc2c(Cl)cccc2Cl)nn1 : 4

inhibition of growth at 750 g/ha in this record for Cc1cc(-c2cccc(C(F)(F)F)c2)c(OCc2ccc(N(C)C)cc2)nn1 : 0
